- ASSAY COMMENT: everolimus arterial tissue concentration in and next to the stented vessel
- Assay type: in vivo, swine
- PROTOCOL CONDITIONS: swine, 3209 μg, swine; 8.0×28 mm stent, group 3, 3209 μg; 14 days; read-out: drug concentration in tissue distal to stented region
QUANTITY KIND: concentration at 14 days (ng/g)

molecule="CO[C@H]1C[C@@H]2CC[C@@H](C)[C@@](O)(O2)C(=O)C(=O)N2CCCC[C@H]2C(=O)O[C@H]([C@H](C)C[C@@H]2CC[C@@H](OCCO)[C@H](OC)C2)CC(=O)[C@H](C)/C=C(\\C)[C@@H](O)[C@@H](OC)C(=O)[C@H](C)C[C@H](C)/C=C/C=C/C=C/1C [everolimus, 40-O-(2-hydroxyethyl)-rapamycin]" quantity_kind="concentration at 14 days" display_unit=ng/g reported=1120

* * *

- ASSAY COMMENT: everolimus arterial tissue concentration in and next to the stented vessel
- Type: in vivo, swine
- PROTOCOL CONDITIONS: pig, arterial tissue, 3777 ug; 7×100 mm stent, 3777 μg everolimus
QUANTITY KIND: Tmax (h)

compound="CO[C@H]1C[C@@H]2CC[C@@H](C)[C@@](O)(O2)C(=O)C(=O)N2CCCC[C@H]2C(=O)O[C@H]([C@H](C)C[C@@H]2CC[C@@H](OCCO)[C@H](OC)C2)CC(=O)[C@H](C)/C=C(\\C)[C@@H](O)[C@@H](OC)C(=O)[C@H](C)C[C@H](C)/C=C/C=C/C=C/1C [everolimus, 40-O-(2-hydroxyethyl)-rapamycin]" quantity_kind=Tmax display_unit=h reported=72

* * *

- ASSAY COMMENT: everolimus arterial tissue concentration in and next to the stented vessel
- Type: in vivo, swine
- PROTOCOL CONDITIONS: swine, 3209 μg, swine; 8.0×28 mm stent, group 3, 3209 μg; 14 days; read-out: drug concentration in tissue proximal to stented region
QUANTITY KIND: concentration at 14 days (ng/g)

compound="CO[C@H]1C[C@@H]2CC[C@@H](C)[C@@](O)(O2)C(=O)C(=O)N2CCCC[C@H]2C(=O)O[C@H]([C@H](C)C[C@@H]2CC[C@@H](OCCO)[C@H](OC)C2)CC(=O)[C@H](C)/C=C(\\C)[C@@H](O)[C@@H](OC)C(=O)[C@H](C)C[C@H](C)/C=C/C=C/C=C/1C [everolimus, 40-O-(2-hydroxyethyl)-rapamycin]" quantity_kind="concentration at 14 days" reported=307

* * *

- ASSAY COMMENT: everolimus arterial tissue concentration in and next to the stented vessel
- Assay type: in vivo, swine
- PROTOCOL CONDITIONS: swine, arterial tissue proximal to stented region (unstented), 1070 μg, swine; 10.0×28 mm stent, 1070 μg; 28 days; read-out: drug concentration in tissue proximal to stented region
QUANTITY KIND: concentration at 28 days (ng/g)

molecule="CO[C@H]1C[C@@H]2CC[C@@H](C)[C@@](O)(O2)C(=O)C(=O)N2CCCC[C@H]2C(=O)O[C@H]([C@H](C)C[C@@H]2CC[C@@H](OCCO)[C@H](OC)C2)CC(=O)[C@H](C)/C=C(\\C)[C@@H](O)[C@@H](OC)C(=O)[C@H](C)C[C@H](C)/C=C/C=C/C=C/1C [everolimus, 40-O-(2-hydroxyethyl)-rapamycin]" reported=12
